- tested.system: recombinant human IL-31 (C108S), produced in E. coli by ZymoGenetics, MW 18 kDa (human), Q6EBC2
- procedure.text: cell-based or functional assay
measure.name: Average Fold loss in potency relative to 292.12.3.1, BAF-3(hIL-31R) proliferation assay
Record the result as number plus unit.

I am curious: what Average Fold loss in potency relative to 292.12.3.1, BAF-3(hIL-31R) proliferation assay value has been reported for humanized 292.12.3.1 construct clone 33 (12VH1(germ)-gly + fback) (antibody, human IgG4, V domains shown) VH: QVQLVQSGAEVKKPGASVKVSCKASGYTLTRYWMQWVRQAPGQGLEWMGAIYPGDGDTRYSQKFQGRVTLTADKSTSTAYMELSSLRSEDTAVYYCAFPDGYYAAPYGMDYWGQGTLVTVSS VL: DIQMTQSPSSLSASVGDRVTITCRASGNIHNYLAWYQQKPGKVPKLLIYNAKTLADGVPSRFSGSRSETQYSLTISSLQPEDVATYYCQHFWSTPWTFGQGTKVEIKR ? 2.3 fold

Another binder: humanized 292.12.3.1 construct clone 30 (12VH1-gly + HC(F29L, V78A, R94F) + LC(F71Y)) (antibody, human IgG4, V domains shown) VH: QVQLVQSGAEVKKPGASVKVSCKASGYTLTRYWMQWVRQAPGQGLEWMGAIYPGDGDTRYSQKFQGRVTMTRDTSISTAYMELSSLRSEDTAVYYCAFPDGYYAAPYGMDYWGQGTLVTVSS VL: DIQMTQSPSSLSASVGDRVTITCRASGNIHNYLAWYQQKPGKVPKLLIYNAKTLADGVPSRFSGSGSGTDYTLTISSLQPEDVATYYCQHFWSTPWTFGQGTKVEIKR 37.1 fold

Another binder: humanized 292.12.3.1 construct clone 22 (12VH5-gly + HC(fback) + LC(G66R, G68E, D70Q, T72S)) (antibody, human IgG4, V domains shown) VH: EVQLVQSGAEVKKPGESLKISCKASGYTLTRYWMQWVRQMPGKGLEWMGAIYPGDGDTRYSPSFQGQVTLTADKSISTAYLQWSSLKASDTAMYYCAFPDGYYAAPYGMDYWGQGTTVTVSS VL: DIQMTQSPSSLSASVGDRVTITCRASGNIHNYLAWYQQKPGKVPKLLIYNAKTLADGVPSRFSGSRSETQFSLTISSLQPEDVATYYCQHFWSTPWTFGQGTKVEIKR 13.2 fold

Another binder: humanized 292.12.3.1 construct clone 27 (12VH1-gly + HC(F29L, M69L, R94F) + LC(F71Y)) (antibody, human IgG4, V domains shown) VH: QVQLVQSGAEVKKPGASVKVSCKASGYTLTRYWMQWVRQAPGQGLEWMGAIYPGDGDTRYSQKFQGRVTLTRDTSISTVYMELSSLRSEDTAVYYCAFPDGYYAAPYGMDYWGQGTLVTVSS VL: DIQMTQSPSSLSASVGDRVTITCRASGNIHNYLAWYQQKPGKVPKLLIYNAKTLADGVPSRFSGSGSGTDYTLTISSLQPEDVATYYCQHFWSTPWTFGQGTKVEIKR 18.7 fold

Another binder: humanized 292.12.3.1 construct clone 32 (12VH1-gly + HC(F29L, R71A, V78A, R94F) + LC(F71Y)) (antibody, human IgG4, V domains shown) VH: QVQLVQSGAEVKKPGASVKVSCKASGYTLTRYWMQWVRQAPGQGLEWMGAIYPGDGDTRYSQKFQGRVTMTADTSISTAYMELSSLRSEDTAVYYCAFPDGYYAAPYGMDYWGQGTLVTVSS VL: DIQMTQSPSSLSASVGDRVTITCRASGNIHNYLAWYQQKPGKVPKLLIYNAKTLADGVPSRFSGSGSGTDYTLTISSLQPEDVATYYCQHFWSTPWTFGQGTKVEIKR 14.7 fold

Provenance of the data: patent US20200262913A1
